ASSAY_TARGET: furin, P09958;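 note: purified furin at 1:10 enzyme:substrate in 50 mM HEPES pH 7.5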
Sequence (P09958 whole entry): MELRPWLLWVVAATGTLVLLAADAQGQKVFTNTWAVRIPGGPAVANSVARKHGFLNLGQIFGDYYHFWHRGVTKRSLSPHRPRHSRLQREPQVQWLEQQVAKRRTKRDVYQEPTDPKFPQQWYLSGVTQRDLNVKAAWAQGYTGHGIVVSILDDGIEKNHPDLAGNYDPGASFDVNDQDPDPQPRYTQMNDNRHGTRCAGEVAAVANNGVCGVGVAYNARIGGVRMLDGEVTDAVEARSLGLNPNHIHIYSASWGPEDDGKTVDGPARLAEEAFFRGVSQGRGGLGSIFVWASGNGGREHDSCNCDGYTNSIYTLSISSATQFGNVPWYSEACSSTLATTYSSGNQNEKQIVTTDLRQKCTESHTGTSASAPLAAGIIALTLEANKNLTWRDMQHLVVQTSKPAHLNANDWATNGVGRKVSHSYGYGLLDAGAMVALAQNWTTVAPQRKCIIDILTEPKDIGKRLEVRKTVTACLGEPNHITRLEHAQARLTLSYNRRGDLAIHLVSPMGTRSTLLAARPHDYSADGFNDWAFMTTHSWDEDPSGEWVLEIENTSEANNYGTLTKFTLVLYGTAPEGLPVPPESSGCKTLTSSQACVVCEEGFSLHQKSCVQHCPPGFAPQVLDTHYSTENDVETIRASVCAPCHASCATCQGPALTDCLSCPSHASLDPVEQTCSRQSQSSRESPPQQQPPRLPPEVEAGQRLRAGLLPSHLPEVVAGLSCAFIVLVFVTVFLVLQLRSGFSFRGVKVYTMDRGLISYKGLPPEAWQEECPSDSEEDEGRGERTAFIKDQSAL
EXPERIMENTAL_PROTOCOL: furin cleavage Z-score vs untreated control; higher = more cleavage, active = 3.5 or more, inactive = 1 or less, 8 variable residues between constant flanks
EXPERIMENTAL_SETUP: 30 min
The list shows a part of the results. The true hit rate is not given.
Outcomes: active, inactive

{"columns": ["SEQUENCE_CHAIN", "QUALITATIVE_LABEL"],
 "data": [
  ["CAFFTELDGVAGNASASA [HC1221]", "inactive"],
  ["CAMLRRTKRGAGNASASA [FS-691]", "inactive"],
  ["CAKRWRRGRAAGNASASA [FS-1596]", "active"],
  ["CAGGSAGHTVAGNASASA [HC355]", "inactive"],
  ["CAAIGRSRRVAGNASASA [FS-114]", "active"],
  ["CAVVCCSMKYAGNASASA [HC2074]", "inactive"],
  ["CASADLVVRGAGNASASA [FS-89]", "inactive"],
  ["CAVQEDAASLAGNASASA [HC1535]", "inactive"],
  ["CAVLCCSMSYAGNASASA [HC2005]", "inactive"],
  ["CARPGRRGRPAGNASASA [FS-492]", "inactive"],
  ["CAGVRLHRFAAGNASASA [HC1224]", "inactive"],
  ["CATTRVRRRSAGNASASA [FS-1100]", "active"],
  ["CASHLRVKRGAGNASASA [FS-1280]", "active"],
  ["CAMDARHKRGAGNASASA [FS-364]", "active"],
  ["CAKPGRRGRAAGNASASA [FS-452]", "active"]
]}
